B1: HDV Ribozyme (parent)
chain: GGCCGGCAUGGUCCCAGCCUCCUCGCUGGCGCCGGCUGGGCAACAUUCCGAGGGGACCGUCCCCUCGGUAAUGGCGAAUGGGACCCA

- Variants of: B1
- procedure_details: self-cleavage, relative activity (ratio to wild type); higher = more cleavage; co-transcriptional
Assign 1.0 whenever self-cleavage does not fall below 0.3; assign 0.0 whenever it does.

[in] Please indicate if the recorded self-cleavage for A16C C24U meets or exceeds 0.3.
[out] 0.0

[in] Please indicate if the recorded self-cleavage for C36G G74A meets or exceeds 0.3.
[out] 0.0

[in] Please indicate if the recorded self-cleavage for U60A A87G meets or exceeds 0.3.
[out] 1.0

[in] Please indicate if the recorded self-cleavage for C14A C19G meets or exceeds 0.3.
[out] 0.0

[in] Please indicate if the recorded self-cleavage for G6U A51G meets or exceeds 0.3.
[out] 1.0

Next:
[in] Please indicate if the recorded self-cleavage for G29U G31C meets or exceeds 0.3.
[out] 0.0

[in] Please indicate if the recorded self-cleavage for C32A C41A meets or exceeds 0.3.
[out] 0.0

[in] Please indicate if the recorded self-cleavage for C18G C36G meets or exceeds 0.3.
[out] 0.0
